Taken from patent US12479816B2.

Collected solubility at 2 h values appear next to each entry.
- TEST_PROTOCOL: Turbidometric solubility determination
- Format: physicochemical
- TEST_SETTINGS: PBS with 1% DMSO, aqueous buffer, kinetic from dmso stock, room temperature, OD620, read-out: Max Solub
Provide the reading as a plain figure in µM.

Sample answers from the record:
>>> observed_result("c1cc(C2CCN(c3cn[nH]c3)CC2)ccc1CN1CCOCC1 [Compound 121]")
122
>>> observed_result("Fc1cc(C2CCN(c3cn[nH]c3)CC2)ccc1N1CCOCC1 [Compound 123]")
85.5
>>> observed_result("COc1ccc(C2CCN(c3cn[nH]c3)CC2)cc1Cl [Compound 64]")
19.5

State its solubility at 2 h for this compound: Fc1cc(N2CCOCC2)ccc1C1CCN(c2cn[nH]c2)CC1 [Compound 124]
26.6

State its solubility at 2 h for this compound: COc1ccc(C2CCN(c3ccn[nH]3)CC2)cc1Cl [Compound 67]
205

State its solubility at 2 h for this compound: COc1cc(F)cc(C2CCN(c3cn[nH]c3)CC2)c1 [Compound 72]
234

State its solubility at 2 h for this compound: O=C1CCCN1Cc1ccc(C2CCN(c3cn[nH]c3)CC2)c(F)c1 [Compound 118]
443
